Listed molecules paired with reported efflux ratio at 120 min, 5 μM
Tested on: MDR1
measurement-protocol: in vitro
particulars: dog, MDCK-MDR1, pH 7.4

Here's what some known entries look like.
{"columns": ["molecule", "experimental-target", "efflux ratio at 120 min, 5 μM"],
 "data": [
  ["CNC(=O)c1ccc(-c2ccc(N(C)[C@@H]3C[C@H]4CC[C@H](N4)[C@@H]3F)nn2)c(O)c1 (single isomer, unassigned) [Compound 77A]", "MDR1", 124],
  ["CN(c1ccc(-c2cc3ncn(CC(F)(F)F)c(=O)c3cc2O)nn1)[C@H]1C[C@@H]2CC(F)(F)[C@H](C1)N2C (single isomer, unassigned) [Compound 110B]", "MDR1", 4],
  ["CN(c1ccc(-c2ccccc2O)nn1)[C@H]1C[C@@H]2CC[C@@H](N2)[C@H]1F (single isomer, unassigned) [Compound 119B]", "MDR1", 9],
  ["O=c1c2cc(O)c(-c3ccc(N(C4CC4)[C@@H]4C[C@H]5CC[C@H](N5)[C@@H]4F)nn3)cc2ncn1CC(F)(F)F (single isomer, unassigned) [Compound 60A]", "MDR1", 151],
  ["CNC(=O)c1cc(O)c(-c2ccc(N(C)[C@@H]3C[C@H]4CC[C@H](N4)[C@@H]3F)nn2)cc1F [Compound 47A]", "MDR1", 34]
]}

Input CN(c1ccc(-c2ccc(C(F)F)cc2O)nn1)[C@H]1C[C@@H]2CC[C@@H](N2)[C@H]1F (single isomer, unassigned) [Compound 120B] . Output efflux ratio at 120 min, 5 μM: 5

Input CN(c1ccc(-c2ccc(C3CC3)cc2O)nn1)[C@H]1C[C@@H]2CC[C@@H](N2)[C@H]1F (single isomer, unassigned) [Compound 31B] . Output efflux ratio at 120 min, 5 μM: 4

----------
Test system: MDR1 (P-gp)
measurement-protocol: Blood-brain-barrier (BBB) penetration potential via MDCK-MDR1 permeability assay
particulars: dog, MDCK-MDR1, pH 7.4, MDCK-MDR1: Papp A-B, A-B direction
Listed compounds paired with reported Papp A→B at 120 min, 5 μM
Report as a plain number; the unit nm/s is understood.

Here's what some known entries look like.
{"columns": ["compound", "experimental-target", "Papp A→B at 120 min, 5 μM (nm/s)"],
 "data": [
  ["CN(c1ccc(-c2cc3c(=O)n(C)ccc3cc2O)nn1)[C@H]1C[C@@H]2CC[C@@H](N2)[C@H]1F [Compound 83B]", "MDR1 (P-gp)", 14.3],
  ["CN(c1ccc(-c2ccc(-n3ccnn3)cc2O)nn1)[C@@H]1C[C@H]2CC[C@H](N2)[C@@H]1F [Compound 61A]", "MDR1 (P-gp)", 42.9],
  ["Cc1cc(=O)c2cc(O)c(-c3ccc(N(C)[C@@H]4C[C@H]5CC[C@H](N5)[C@@H]4F)nn3)cc2o1 [Compound 49A]", "MDR1 (P-gp)", 7.2]
]}

Input CN(c1ccc(-c2ccc(-n3cnc(C#N)c3)cc2O)nn1)[C@@H]1C[C@H]2CC[C@H](N2)[C@@H]1F [Compound 69A] . Output Papp A→B at 120 min, 5 μM: 13.6

Input Cc1ccc(-c2ccc(-c3ccc(N(C)[C@@H]4C[C@H]5CC[C@H](N5)[C@@H]4F)nn3)c(O)c2)nn1 (single isomer, unassigned) [Compound 25A] . Output Papp A→B at 120 min, 5 μM: 17.9

Input CN(c1ccc(-c2cc3occc(=O)c3cc2O)nn1)[C@@H]1C[C@H]2CC[C@H](N2)[C@@H]1F [Compound 43A] . Output Papp A→B at 120 min, 5 μM: 21.4

Input CN(c1ccc(-c2ccc(-c3cn[nH]c3)cc2O)nn1)[C@@H]1C[C@H]2CC[C@H](N2)[C@@H]1F (single isomer, unassigned) [Compound 42A] . Output Papp A→B at 120 min, 5 μM: 8.6

----------
Test system: MDR1 (P-gp)
measurement-protocol: Blood-brain-barrier (BBB) penetration potential via MDCK-MDR1 permeability assay
particulars: dog, MDCK-MDR1, pH 7.4, MDCK-MDR1: Papp A-B, A-B direction
The threshold is inclusive: Papp A→B at 120 min, 5 μM of exactly 2 ×10⁻⁶ cm/s counts as Yes; values below receive No.

{"columns": ["compound", "assigned-category"],
 "data": [
  ["CN(c1ccc(-c2ccc(-c3cc[nH]n3)cc2O)nn1)[C@@H]1C[C@H]2CC[C@H](N2)[C@@H]1F (single isomer, unassigned) [Compound 33A]", "No"]
]}

*Q* Textbook exercise: given the entry CN(c1ccc(-c2ccc(-n3ccnn3)cc2O)nn1)[C@@H]1C[C@H]2CCC[C@H](N2)[C@@H]1F [Compound 62A] , state whether its Papp A→B at 120 min, 5 μM is greater than or equal to 2 ×10⁻⁶ cm/s.
*A* Yes

*Q* Textbook exercise: given the entry C#Cc1ccc(-c2ccc(N(C)[C@H]3C[C@@H]4CC[C@@H](N4)[C@H]3F)nn2)c(O)c1 [Compound 10B] , state whether its Papp A→B at 120 min, 5 μM is greater than or equal to 2 ×10⁻⁶ cm/s.
*A* Yes

*Q* Textbook exercise: given the entry CN(c1ccc(-c2cc3ncccc3cc2O)nn1)[C@H]1C[C@@H]2CC[C@@H](N2)[C@H]1F [Compound 73B] , state whether its Papp A→B at 120 min, 5 μM is greater than or equal to 2 ×10⁻⁶ cm/s.
*A* Yes

----------
Test system: MDR1
measurement-protocol: Blood-brain-barrier (BBB) penetration potential via MDCK-MDR1 permeability assay
particulars: dog, MDCK-MDR1, pH 7.4, MDCK-MDR1: Efflux, efflux ratio
Listed compounds paired with reported efflux ratio at 120 min, 5 μM
Could you respond with only the numeric value?

{"columns": ["compound", "efflux ratio at 120 min, 5 μM"],
 "data": [
  ["CN(c1ccc(-c2cc(C#N)c(F)cc2O)nn1)[C@H]1C[C@@H]2CC[C@@H](N2)[C@H]1F [Compound 72B]", 3],
  ["Cc1cnc(-c2ccc(-c3ccc(N(C)[C@H]4C[C@@H]5CCC[C@@H](N5)[C@H]4F)nn3)c(O)c2)o1 [Compound 16B]", 16],
  ["CN(C)C(=O)c1cc2cc(O)c(-c3ccc(N(C)[C@@H]4C[C@H]5CC[C@H](N5)[C@@H]4F)nn3)cc2o1", 80],
  ["CN(c1ccc(-c2cc(F)c(-c3ccn(C)c(=O)c3)cc2O)nn1)[C@H]1C[C@@H]2CC[C@@H](N2)[C@H]1F", 83],
  ["CN(c1ccc(-c2ccc(-c3ccccn3)cc2O)nn1)[C@H]1C[C@@H]2CCC[C@@H](N2)[C@H]1F [Compound 23B]", 15]
]}

Input CN(c1ccc(-c2cc3cncnc3cc2O)nn1)[C@@H]1C[C@H]2CC[C@H](N2)[C@@H]1F [Compound 75A] . Output efflux ratio at 120 min, 5 μM: 22

Input COc1cc(-c2ccc(-c3ccc(N(C)[C@H]4CC5N[C@@H](C4)CC5(F)F)nn3)c(O)c2)cnn1 (single isomer, unassigned) . Output efflux ratio at 120 min, 5 μM: 3

Input CN(c1ccc(-c2cc3ncn(CC(F)(F)F)c(=O)c3cc2O)nn1)[C@@H]1C[C@H]2CCC[C@H](N2)[C@@H]1F [Compound 58A] . Output efflux ratio at 120 min, 5 μM: 201

Input CN(c1ccc(-c2cc3cnccc3cc2O)nn1)[C@@H]1C[C@H]2CC[C@H](N2)[C@@H]1F (single isomer, unassigned) . Output efflux ratio at 120 min, 5 μM: 6

Input CN(c1ccc(-c2ccc(C#N)cc2O)nn1)[C@@H]1C[C@H]2CC[C@H](N2)[C@@H]1F [Compound 38A] . Output efflux ratio at 120 min, 5 μM: 3

Input Cc1cnc(-c2ccc(-c3ccc(N(C)[C@@H]4C[C@H]5CC[C@H](N5)[C@@H]4F)nn3)c(O)c2)o1 [Compound 48A] . Output efflux ratio at 120 min, 5 μM: 8

----------
Tested on: MDR1-MDCK cell monolayers
measurement-protocol: Blood-brain-barrier (BBB) penetration potential via MDCK-MDR1 permeability assay
particulars: B-A
outcome-measure: MDCK-MDR1: % Recov B-A (%)
Report as a plain number; the unit % is understood.

Here's what some known entries look like.
{"columns": ["compound", "observed"],
 "data": [
  ["Cc1nc2cc(O)c(-c3ccc(N(C)[C@H]4C[C@@H]5CC[C@@H](N5)[C@H]4F)nn3)cc2o1 [Compound 117B]", 86],
  ["Cc1nc2cc(O)c(-c3ccc(N(C)[C@@H]4C[C@H]5CC[C@H](N5)[C@@H]4F)nn3)cc2o1 [Compound 117A]", 97],
  ["CN(c1ccc(-c2cc3ccncc3cc2O)nn1)[C@H]1C[C@@H]2CC(F)(F)[C@H](C1)N2 [Compound 125B]", 81],
  ["Cc1cc(=O)c2cc(-c3ccc(N(C)[C@H]4C[C@@H]5CC[C@H]([C@H]4F)N5C)nn3)c(O)cc2o1 [Compound 100B]", 80],
  ["CN(c1ccc(-c2cc3cnccc3cc2O)nn1)[C@@H]1C[C@H]2CCC[C@H](N2)[C@@H]1F [Compound 121A]", 95]
]}

Input Cc1cc(=O)c2cc(O)c(-c3ccc(N(C)[C@H]4C[C@@H]5CC[C@H]([C@H]4F)N5C)nn3)cc2o1 [Compound 99B] . Output MDCK-MDR1: % Recov B-A: 112

Input Cc1nc2cc(-c3ccc(N(C)[C@H]4C[C@@H]5CC[C@@H](N5)[C@H]4F)nn3)c(O)cc2s1 [Compound 115B] . Output MDCK-MDR1: % Recov B-A: 88

Input Cc1nc2cc(-c3ccc(N(C)[C@@H]4C[C@H]5CC[C@H](N5)[C@@H]4F)nn3)c(O)cc2c(=O)n1CC(F)(F)F [Compound 113A] . Output MDCK-MDR1: % Recov B-A: 99

Each recorded value in this set is attributed to patent US12509460B2.
